Data origin, for the record: patent US20240117334A1

# System Under Test: Human Factor B (human, UniProt P00751 26-764)
# Sequence (P00751 26-764 limits assumed): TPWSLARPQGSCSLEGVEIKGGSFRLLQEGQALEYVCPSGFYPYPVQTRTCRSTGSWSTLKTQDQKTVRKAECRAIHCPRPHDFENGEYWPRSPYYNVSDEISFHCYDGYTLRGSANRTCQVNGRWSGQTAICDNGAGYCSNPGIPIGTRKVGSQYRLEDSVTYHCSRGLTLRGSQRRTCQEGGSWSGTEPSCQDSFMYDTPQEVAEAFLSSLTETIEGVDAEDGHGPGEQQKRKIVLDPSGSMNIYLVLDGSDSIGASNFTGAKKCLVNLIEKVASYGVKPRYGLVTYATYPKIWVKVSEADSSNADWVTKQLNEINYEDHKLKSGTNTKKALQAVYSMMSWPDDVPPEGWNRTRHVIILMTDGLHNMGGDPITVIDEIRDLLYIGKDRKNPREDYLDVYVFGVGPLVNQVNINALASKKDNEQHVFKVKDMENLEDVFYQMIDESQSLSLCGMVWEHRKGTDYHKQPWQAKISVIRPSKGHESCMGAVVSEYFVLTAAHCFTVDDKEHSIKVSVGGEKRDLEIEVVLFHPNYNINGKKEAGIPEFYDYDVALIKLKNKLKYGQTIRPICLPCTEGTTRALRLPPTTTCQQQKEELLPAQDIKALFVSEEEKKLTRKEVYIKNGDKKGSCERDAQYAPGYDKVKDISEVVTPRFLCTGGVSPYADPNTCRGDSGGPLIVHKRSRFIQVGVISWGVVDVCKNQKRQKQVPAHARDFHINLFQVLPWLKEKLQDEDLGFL
# Protocol Text: cell-based or functional assay
Measured fB Cleavage EC50, listed per entry.
Respond with the bare value in nM.

See these solved cases before continuing.
Binder | Unit Annotation | fB Cleavage EC50
chymase C22S/L99Y/F173Y/K192R/S218L/A226R (enzyme) IIGGTESKPHSRPYMAYLEIVTSNGPSKFCGGFLIRRNFVLTAAHCAGRSITVTLGAHNITEEEDTWQKLEVIKQFRHPKYNTSTYHHDIMLLKLKEKASLTLAVGTLPFPSQFNFVPPGRMCRVAGWGRTGVLKPGSDTLQEVKLRLMDPQACSHYRDFDHNLQLCVGNPRKTKSAFRGDSGGPLLCAGVAQGIVSYGRLDAKPPRVFTRISHYRPWINQILQAN | nM | 1020
chymase C22S/F41R/L99H/G151T/F173Y/Y215K/R217M/A226R (enzyme) IIGGTESKPHSRPYMAYLEIVTSNGPSKRCGGFLIRRNFVLTAAHCAGRSITVTLGAHNITEEEDTWQKLEVIKQFRHPKYNTSTHHHDIMLLKLKEKASLTLAVGTLPFPSQFNFVPPGRMCRVAGWGRTGVLKPTSDTLQEVKLRLMDPQACSHYRDFDHNLQLCVGNPRKTKSAFKGDSGGPLLCAGVAQGIVSKGMSDAKPPRVFTRISHYRPWINQILQAN | nM | 1690

Now let's try a different one.
-- ask # input binder: chymase C22S/F41V/L99H/G151R/F173L/Y215R/R217T/A226R (enzyme) IIGGTESKPHSRPYMAYLEIVTSNGPSKVCGGFLIRRNFVLTAAHCAGRSITVTLGAHNITEEEDTWQKLEVIKQFRHPKYNTSTHHHDIMLLKLKEKASLTLAVGTLPFPSQFNFVPPGRMCRVAGWGRTGVLKPRSDTLQEVKLRLMDPQACSHLRDFDHNLQLCVGNPRKTKSAFKGDSGGPLLCAGVAQGIVSRGTSDAKPPRVFTRISHYRPWINQILQAN ; wanted: its fB Cleavage EC50
-- reply 8060
